Listing of entries alongside the reported EC50.
target: long isoform of human D2 receptor (Homo sapiens); experiment: Arrestin Agonist Assay (DRD2L PathHunter CHO-K1 cells, β-arrestin recruitment)

>  <COMPOUND>
O=c1ccc2ccc(OCCCCN3CCc4nn(-c5ccccn5)cc4C3)nc2[nH]1 [Compound 67]

>  <EC50>
> 10000 nM

$$$$
>  <COMPOUND>
O=C1CCc2ccc(OCCCCN3CCc4nn(-c5ccccc5F)cc4C3)cc2N1 [Compound 35]

>  <EC50>
> 10000 nM

$$$$
>  <COMPOUND>
O=C1CCc2ccc(OCCCCN3CCc4nn(-c5cccc(F)c5)cc4C3)cc2N1 [Compound 36]

>  <EC50>
< 10 nM

$$$$
>  <COMPOUND>
O=c1ccc2ccc(OCCCCN3CCc4nn(-c5ccccc5)cc4C3)nc2[nH]1 [Compound 66]

>  <EC50>
> 10000 nM

$$$$
>  <COMPOUND>
N#Cc1ccc2c(c1)CCN(CCCCOc1ccc3c(n1)NC(=O)CC3)C2 [Compound 73]

>  <EC50>
> 10000 nM

$$$$
>  <COMPOUND>
CCOc1ccccc1N1CCN(CCCCOc2cccc(-c3cc[nH]n3)n2)CC1 [Compound 49]

>  <EC50>
< 10 nM

$$$$
>  <COMPOUND>
CCCOc1cccnc1N1CCN(CCCCOc2ccc3cccc(O)c3n2)CC1 [Compound 11]

>  <EC50>
> 10000 nM

$$$$
>  <COMPOUND>
COc1cccnc1N1CCN(CCCCOc2cccc(-c3cc[nH]n3)n2)CC1 [Compound 47]

>  <EC50>
< 10 nM

$$$$

In: Give a short answer stating reported EC50 for Cc1ccccc1N1CCN(CCCCOc2ccc3cn[nH]c3c2)CC1 [Compound 96] .
Out: 10 to 100 nM

In: Consider the compound c1cc(OCCCCN2CCc3ccccc3C2)nc(-c2cc[nH]n2)c1 [Compound 44] and give its recorded EC50.
Out: < 10 nM

In: Name the recorded EC50 of the compound listed here: Oc1cccc2ccc(OCCCCN3CCc4ccccc4C3)nc12 [Compound 12]
Out: 10 to 100 nM

====

target: long isoform of human D2 receptor (Homo sapiens, UniProt P14416); assay: Arrestin Agonist Assay (DRD2L PathHunter CHO-K1 cells, β-arrestin recruitment)
Sequence (P14416 whole entry, canonical isoform): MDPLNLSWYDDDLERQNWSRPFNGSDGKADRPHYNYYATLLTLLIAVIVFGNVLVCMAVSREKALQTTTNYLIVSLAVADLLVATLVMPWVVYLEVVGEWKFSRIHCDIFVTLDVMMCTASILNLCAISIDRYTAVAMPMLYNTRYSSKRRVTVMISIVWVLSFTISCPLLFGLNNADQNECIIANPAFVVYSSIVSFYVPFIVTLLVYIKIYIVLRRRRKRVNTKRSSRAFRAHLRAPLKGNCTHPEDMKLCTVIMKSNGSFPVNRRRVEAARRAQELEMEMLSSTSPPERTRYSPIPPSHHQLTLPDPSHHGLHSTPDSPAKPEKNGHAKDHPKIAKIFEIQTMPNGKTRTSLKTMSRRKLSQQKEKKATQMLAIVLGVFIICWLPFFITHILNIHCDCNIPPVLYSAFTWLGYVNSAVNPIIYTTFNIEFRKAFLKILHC
ASSAY READOUT: EC50

Field: example entries. Status: answers known.
>  <MOL SMILES>
O=C1CCc2ccc(OCCCCN3CCc4ccccc4C3)cc2N1

>  <ASSAY READOUT>
EC50

>  <OBSERVED MEASUREMENT>
< 0.01 µM

$$$$
>  <MOL SMILES>
O=c1ccc2ccc(OCCCCN3CCc4cc(F)ccc4C3)nc2[nH]1

>  <ASSAY READOUT>
EC50

>  <OBSERVED MEASUREMENT>
> 10 µM

$$$$

In: Answer with reported EC50 of O=C1CCc2ccc(OCCCCN3CCc4c(cnn4-c4cccc(Cl)c4)C3)cc2N1
Out: > 10 µM

In: Answer with the recorded EC50 of O=C1CCc2ccc(OCCCCN3CCc4cc(F)ccc4C3)nc2N1 only.
Out: > 10 µM

In: State, in one line, measured EC50 of N#Cc1cccc2c1CN(CCCCOc1ccc3ccc(=O)[nH]c3n1)CC2
Out: < 0.01 µM

In: Identify measured EC50 associated with O=C1CCc2ccc(OCCCCN3CCn4cncc4C3)cc2N1
Out: > 10 µM

In: Query EC50 for O=c1ccc2ccc(OCCCCN3CCc4cc(Cl)ccc4C3)nc2[nH]1
Out: > 10 µM

In: Determine its reported EC50: O=c1ccc2ccc(OCCCCN3CCc4c(Cl)cccc4C3)nc2[nH]1
Out: < 0.01 µM

In: Quote EC50 reported for O=C1NCCc2ccc(OCCCCN3CCc4nn(-c5ccccc5)cc4C3)nc2N1 please.
Out: 0.01 to 0.1 µM

In: Please give the documented EC50 of COc1cccnc1N1CCN(CCCCOc2ccc3cccc(O)c3n2)CC1
Out: > 10 µM
